Measurement kind: logP

# annotated cases, reported logP shown
COC(=O)C(C)NP(=O)(OCC1C=CC(n2cc(C)c(=O)[nH]c2=O)O1)Oc1ccccc1Cl (stereo unspecified): 1.37
O=C(O)CCCCCON=C(c1cncnc1)c1cccc(C(F)(F)F)c1: 3.65
N#Cc1cccc(Cn2cnc3ccccc32)c1: 2.47
Cc1ccc(-n2c(Cc3c(C)[nH]c4ccccc34)n[nH]c2=S)cc1: 3
CCCCCCCCNC(=O)N1C(=O)N(C)CC1O (stereo unspecified): 3.46

I would be grateful if you could share the reported logP for COC(=O)C(C)NP(=O)(OCC1C=CC(n2cc(C)c(=O)[nH]c2=O)O1)Oc1ccc(I)cc1 (stereo unspecified) .
1.93

What about this compound? `COc1cc(SC)ccc1-c1cn2cccnc2n1`
2.44

What about this compound? `CC(=O)OCC1=C(C(=O)O)N2C(=O)[C@@H](NC(=O)Cc3ccccc3)[C@H]2SC1`
0.2
